Tested on: L1210 cells
Assay: In vitro cytotoxicity of the peptide derivative (I), MTS method, L1210 cells
Type: cell-based, mouse
Conditions: Mus musculus
Excerpt: The cytotoxicity of the peptide derivative (I) or a pharmaceutically acceptable salt thereof, or the conjugate including the peptide derivative (I) or a pharmaceutically acceptable salt thereof can be evaluated with an in vitro study. […]
Kindly supply the reported EC50 values for the records listed here.
Answers are plain numbers, in nM.

# annotated cases, reported EC50 shown
compound	unit tag	measured
CC[C@H](C)[C@@H]([C@@H](CC(=O)N1CCC[C@H]1[C@H](OC)[C@@H](C)C(=O)N[C@@H](Cc1ccccc1)c1nc(C(=O)OCCS)cs1)OC)N(C)C(=O)[C@@H](NC(=O)[C@H](C(C)C)N(C)C)C(C)C [Example 2]	nM	14.2
CC[C@H](C)[C@@H]([C@@H](CC(=O)N1CCC[C@H]1[C@H](OC)[C@@H](C)C(=O)N[C@@H](Cc1ccccc1)c1nc(C(=O)N(C)CCN)cs1)OC)N(C)C(=O)[C@@H](NC(=O)[C@H](C(C)C)N(C)C)C(C)C [Example 5]	nM	11.7

Continue with the next compound.
Prompt: Item under review: CC[C@H](C)[C@@H]([C@@H](CC(=O)N1CCC[C@H]1[C@H](OC)[C@@H](C)C(=O)N[C@@H](Cc1ccccc1)c1nc(C(=O)N(C)CCS)cs1)OC)N(C)C(=O)[C@@H](NC(=O)[C@H](C(C)C)N(C)C)C(C)C [Example 3] . Reported EC50?
Completion: 6.96
